Data provenance is PubChem BioAssay.

// values below are reported z-score
assay: resazurin metabolic signal in HepG2 cells – cell-based, resazurin fluorescence, 24 h, PK04 Diversity Set, profiling panel (AID 1172); settings: HepG2 viability, higher = more signal; note: test concentration not given here
attribute.measured: z-score

# line.notation, reported.value
data = [
    ("CC(C)N1C(=O)C[C@@](C(=O)NC2CC2)(c2ccc([N+](=O)[O-])cc2)[C@H]1c1ccc(CO)cc1", -0.557),
    ("CO[C@H]1O[C@H](CO)[C@@H](OC(=O)Nc2ccc(Br)cc2)[C@@H]2OC(=O)[C@@H](Cc3ccccc3)C/C=C/C[C@H](Cc3ccccc3)C(=O)O[C@@H]12", -1.2),
    ("CCCC#C[Si](O[C@H](CC)c1cn([C@H](C)c2ccccc2)nn1)(C(C)C)C(C)C", 0.186),
    ("COc1ccc(C#Cc2ccc3c(c2)[C@]2(C(=O)N3)[C@H](c3ccc(O)cc3)N3[C@H](c4ccccc4)[C@H](c4ccccc4)OC(=O)[C@H]3[C@@H]2C(=O)Nc2nc3ccccc3s2)cc1", -1.11),
    ("[N-]=[N+]=Nc1ccccc1C[C@@]1(C(=O)NCCN2CCOCC2)N=C(c2ccc(OCCCO)cc2)O[C@@H]1c1ccccc1N=[N+]=[N-]", -1.02),
    ("C=CCOC(=O)[C@@]1(Cc2ccccc2)C[C@H]2CO[C@H](c3ccc(OC)cc3)N2C1=O", -0.352),
    ("[N-]=[N+]=NCc1ccccc1C[C@@]1(C(N)=O)N=C(c2ccc(OCCCO)cc2)O[C@@H]1c1ccccc1", 0.0565),
]
